measured_on: UniProt:P00381
Sequence (P00381 whole entry): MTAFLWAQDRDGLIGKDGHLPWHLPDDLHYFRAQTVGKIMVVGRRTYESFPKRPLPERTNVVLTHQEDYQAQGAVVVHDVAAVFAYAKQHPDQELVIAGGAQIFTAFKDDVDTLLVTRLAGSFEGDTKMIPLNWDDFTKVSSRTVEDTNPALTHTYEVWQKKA
protocol_details: Inhibition of DHFR, spectrophotometric assay (L. casei DHFR)
condition_label: pH 7.0, read-out: ID50 (drug concentration which inhibits enzyme activity by 50%)
Protocol: Tests were conducted to determine the ID50 value for methotrexate analogs of the present invention. The ID50 value is the drug concentration which inhibits enzyme activity by 50%. […] DHFR activity was measured as the decrease over time in absorbance at 340 nm. DHFR was diluted prior to each experiment in 50 mM potassium phosphate buffer (pH 7.0) containing 0.1 mM NADPH and 0.1% BSA. […]
result_type: IC50 (nM)

record_smiles: CCOc1nc2nc(N)nc(N)c2nc1CN(C)c1ccc(C(=O)N[C@@H](CCC(=O)O)C(=O)O)cc1
reading: 1200

record_smiles: CN(Cc1nc2c(N)nc(N)nc2nc1F)c1ccc(C(=O)N[C@@H](CCC(=O)O)C(=O)O)cc1
reading: 500

record_smiles: COc1nc2nc(N)nc(N)c2nc1CN(C)c1ccc(C(=O)N[C@@H](CCC(=O)O)C(=O)O)cc1
reading: 1000

record_smiles: CC(C)Oc1nc2nc(N)nc(N)c2nc1CN(C)c1ccc(C(=O)N[C@@H](CCC(=O)O)C(=O)O)cc1
reading: 670

record_smiles: CC(C)Nc1nc2nc(N)nc(N)c2nc1CN(C)c1ccc(C(=O)N[C@@H](CCC(=O)O)C(=O)O)cc1
reading: 750

record_smiles: CNc1nc2nc(N)nc(N)c2nc1CN(C)c1ccc(C(=O)N[C@@H](CCC(=O)O)C(=O)O)cc1
reading: 200

I. CN(Cc1nc2c(N)nc(N)nc2nc1N)c1ccc(C(=O)N[C@@H](CCC(=O)O)C(=O)O)cc1
II. CN(Cc1nc2c(N)nc(N)nc2nc1P(=O)(O)O)c1ccc(C(=O)N[C@@H](CCC(=O)O)C(=O)O)cc1
Lookup: Which numeric IC50 is bigger, that of I or that of II ? Answer by quoting the chosen item's label.
Found: II
(II: 15000 nM, I: 168 nM)

P. CN(Cc1nc2c(N)nc(N)nc2nc1N=[N+]=[N-])c1ccc(C(=O)N[C@@H](CCC(=O)O)C(=O)O)cc1
Q. CN(Cc1nc2c(N)nc(N)nc2nc1Cl)c1ccc(C(=O)N[C@@H](CCC(=O)O)C(=O)O)cc1
Lookup: Could you tell me which of these two has the smaller IC50 figure? First: P Second: Q Respond using the label that marks the chosen record.
Found: P
